Tgt: SARS-CoV-2 RBD (RBD-2) (SARS-CoV-2)
Experimental details: SPR, Fc-captured IgG
Measurement name: kon
Phrase the answer as number then unit, nothing more needed.

[in] Request the reported kon associated with L12.cP08D10 (antibody, V domains shown, human IgG1) VH: EVQLVQSGAEVKKPGASVKVSCKASGYIFSGYYMHWVRQAPGQGLEWMGWISPDSGGTNYAQNFQGRVTMTRDTSISTGYMELSRLRSDDTAMYYCARGPRYSGTYFDYWGQGVLVTVSS VL: QSVLTQPASVSGSPGQSITISCTGTSSDVGGYNYVSWYQQHPGKVPKLMIYDVSNRPSGVSNRFSGSKSGNTASLTISGLQAEDEADYYCSSYTSSSAQVFGGGTKLTVL
[out] 59400 M⁻¹ s⁻¹

[in] Request the reported kon associated with L12.bP11A11 (antibody, V domains shown, human IgG1) VH: QVQLVQSGAEVKKPGASVKVSCKASGYTFTGYYMHWVRQAPGQGLEWMGWISPNSGGTNYAQKFQGWVTMTRDTSVSTAYMELSRLRFDDTAVYYCATESWVYGSGSYSSGAFDIWGQGTMVTVSS VL: QSVLTQPPSASGSPGQSVTISCTGTSSDVGGYDYVSWYQQHPGKAPKLMIYEVSKRPSGVPDRFSGSKSGNTASLTVPGLQAEDEADYYCTSYAGSNNFVFGGGTKLIVL
[out] 388000 M⁻¹ s⁻¹

[in] Request the reported kon associated with L12.cP08A09 (antibody, V domains shown, human IgG1) VH: QVQLVQSGAEVKKPGASVKVSCKASGYIYSGYYMHWVRQAPGQGLEWMGWISPDSGGTNYAQRFQGRVTMTRDTSTTTAYMELSRLRSDDTAVYYCARGPRYSGTYFDYWGQGTLVTVSS VL: QSALTQPASVSGSPGQSITISCTGTSSDVGGYNYVSWYQQHPDKAPKLMIYDVSNRPSGVSNRFSGSKSGNTASLTISGLQAEDEADYYCSSYTSGSTQVFGGGTKLTVL
[out] 404000 M⁻¹ s⁻¹

[in] Request the reported kon associated with L12.cP09D03 (antibody, V domains shown, human IgG1) VH: QVQLVQSGAEVKKPGASVKVSCKASGYIFSGYYTHWVRQAPGQGLEWMGWISPDSGGTNYAQKFQGRVTMTRDTSITTAYVELSGLRSDDTAVYYCARGPRYSGTYFDYWGQGTLVTVSS VL: QSVLTQPASVSGSPGQSITISCTGTSSDVGGYNYVSWYQQHPGKVPKLMIYDVSNRPSGVSNRFSGSKSGNTASLTISGLQAEDEADYYCSSYTSSSAQLFGGGTKLTVL
[out] 575000 M⁻¹ s⁻¹

# context switch: different binder, same kon
[in] Request the reported kon associated with L12.bP12H09 (antibody, V domains shown, human IgG1) VH: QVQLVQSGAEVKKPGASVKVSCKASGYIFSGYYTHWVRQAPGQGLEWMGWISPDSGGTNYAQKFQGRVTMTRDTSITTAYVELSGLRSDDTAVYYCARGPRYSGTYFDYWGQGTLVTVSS VL: QSALTQPASVSGSPGQSITISCTGTSSDVGGYNHVSWYQQHPGKAPKLMIYDVSNRPSGVSNRFSGSKSGNTASLTISGLQAEDEADYYCSSYTSSSAQLFGGGTKLTVL
[out] 773000 M⁻¹ s⁻¹
